Record: compiled IC50 on Endothelin-1 receptor (Homo sapiens) from multiple reports.
PARAMETER_MEASURED: IC50 (nM)

(a) Cc1noc(NS(=O)(=O)c2ccsc2)c1Br
(b) CC(C)c1ccc(S(=O)(=O)NC(=O)C(c2ccc3c(c2)OCO3)c2c[nH]c3cc(C(=O)O)ccc23)cc1 (centres undefined)
In: Which one would you say has the larger IC50 value: a , or b ? Write the label of whichever entry you select.
Out: a

(A) Cc1noc(NS(=O)(=O)c2ccsc2C2(Cc3ccc4c(c3)OCO4)OCCO2)c1Cl
(B) COc1cc2c(-c3ccc4c(c3)OCO4)c(C(=O)O)n(Cc3ccc4nsnc4c3)c2cc1OC
In: Which one would you say has the larger IC50 value: A , or B ? Write the label of whichever entry you select.
Out: A
(A: 123 nM, B: 33 nM)

---

Record: compiled pIC50 on the protein given by its sequence from multiple reports.
Target sequence: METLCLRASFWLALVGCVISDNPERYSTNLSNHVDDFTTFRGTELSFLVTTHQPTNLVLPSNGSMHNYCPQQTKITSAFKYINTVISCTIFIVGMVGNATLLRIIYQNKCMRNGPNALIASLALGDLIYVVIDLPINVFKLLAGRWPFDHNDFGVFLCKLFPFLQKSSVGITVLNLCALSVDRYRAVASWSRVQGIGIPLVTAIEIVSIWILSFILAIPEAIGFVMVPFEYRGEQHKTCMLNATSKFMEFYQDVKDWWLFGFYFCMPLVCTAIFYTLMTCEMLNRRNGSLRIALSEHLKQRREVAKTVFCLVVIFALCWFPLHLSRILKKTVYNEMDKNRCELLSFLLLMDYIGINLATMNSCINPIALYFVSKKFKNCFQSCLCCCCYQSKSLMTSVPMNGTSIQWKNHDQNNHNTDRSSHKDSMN
pIC50: −log10 of the molar value.
PARAMETER_MEASURED: pIC50

Use these answered entries as a reference point.
COMPOUND	pIC50
CCCOc1ccc2c(c1)c(-c1ccc3c(c1)OCO3)c(C(=O)O)n2Cc1ccc2nsnc2c1	7.01
Cc1noc(NS(=O)(=O)c2ccsc2C(=O)N(C)c2ccccc2)c1Br	5.72
CCCc1ccc2c(n1)[C@@H](c1ccc(OC)cc1)[C@H](C(=O)O)[C@H]2c1ccc2c(c1)OCO2	9.43
CCCOc1ccc([C@H]2[C@H](C(=O)O)[C@@H](c3ccc4c(c3)OCO4)CN2CC(=O)Nc2c(CC)cccc2CC)cc1 (stereo in doubt; 38)	5.09

(I) Cc1ccc(NC(=O)c2sccc2S(=O)(=O)Nc2onc(C)c2Cl)nc1
(II) COc1ccc(NC(=O)c2sccc2S(=O)(=O)Nc2onc(C)c2Cl)c(C)c1
(III) Cc1oc([C@@H](Cc2cn(C)c3ccccc23)NC(=O)[C@H](CC(C)C)NC(=O)NC2CCCCC2)nc1C(=O)O
(IV) Cc1noc(NS(=O)(=O)c2ccsc2C(=O)Nc2ccc(-c3ccccc3)cc2)c1Br
In: With regard to pIC50, arrange the entries in ascending order, please. List the labels, following the order given in the request.
Out: IV, III, I, II

(I) COc1ccc([C@H]2[C@H](C(=O)O)[C@@H](c3ccc4c(c3)OCO4)CN2CC(=O)NC(c2ccccc2)C(C)(C)C)cc1 (stereo not given in full)
(II) Cc1noc(NS(=O)(=O)c2ccsc2C(=O)Nc2ccc3c(c2C#N)OCO3)c1Cl
In: Which one would you say has the larger pIC50 value: I , or II ? Write the label of whichever entry you select.
Out: II
